Molecular target: T1, Mouse B7H3 (plate-coated protein, ELISA) (mouse, UniProt Q8VE98 29-248, limits assumed)
T1 sequence (looked up): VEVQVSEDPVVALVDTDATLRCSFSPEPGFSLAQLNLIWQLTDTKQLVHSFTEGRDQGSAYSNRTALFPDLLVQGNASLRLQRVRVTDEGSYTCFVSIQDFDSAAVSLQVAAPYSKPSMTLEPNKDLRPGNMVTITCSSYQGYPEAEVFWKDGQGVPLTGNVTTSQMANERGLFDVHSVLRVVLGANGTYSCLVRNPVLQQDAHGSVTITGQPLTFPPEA
Assay: ELISA, antigen coated on plate, anti-human IgG-HRP
pEC50: −log10 of the molar value.
Readout name: pEC50

Binder	Experimental value
#23-5423 (VH5-4-VL2-3) (antibody, IgG1, V domains shown, Humanized antibody from murine #23) VH: QVQLVQSGAEVKKPGESLKISCKASGYNFNNYWMHWVRQRPGKGLEWIGMIHPNSGTFNYNERFKRKATLTVDKSISTAYLQWSSLKAEDTAMYYCAKSTALATDYWGQGTLVTVSS VL: QIVLTQSPSTLSASVGDRVTITCSASSSVSYMYWYQQKPGKAPKLLIYDTSNLASGVPIRFSGSGSGTSYTLTISSLQPDDFATYYCQQWSSYPLTFGQGTKLEIK	8.84
